Biological target: AR-LBD (Homo sapiens)
Sequence (P10275 669-900 limits assumed): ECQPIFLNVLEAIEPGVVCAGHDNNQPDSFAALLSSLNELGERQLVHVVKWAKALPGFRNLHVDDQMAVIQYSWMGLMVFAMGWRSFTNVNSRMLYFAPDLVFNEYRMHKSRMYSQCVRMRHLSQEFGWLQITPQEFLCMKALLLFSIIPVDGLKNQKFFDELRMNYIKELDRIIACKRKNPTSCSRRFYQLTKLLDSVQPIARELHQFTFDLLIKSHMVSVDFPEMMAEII
Assay: PolarScreen AR competitor assay (fluorescence polarization)
Details: competition with Flu-AR ligand, gradient concentrations 0.1–100 µM; read-out: Binding EC50
pEC50: −log10 of the molar value.
The compounds listed here are annotated with their pEC50.

COc1ccc(CC2(CCC(=O)NCCn3ccc4ccccc43)CCC(=O)N2)c2ccccc12 (stereo not drawn) [HBP1-38]	< 4.52

Data request: What pEC50 value was documented for this compound, Nc1ccc2c(c1)C(=O)N(c1cccc3ccccc13)C2=O [HBP1-3] ?
Data returned: < 4.52

Data request: # iterate: O=C(CC1C(=O)NCCN1Cc1cccc2ccccc12)NCCn1ccc2ccccc21 (stereo not drawn) [HBP1-17]
Data returned: < 4.52
